Every entry's value here was drawn from PubChem BioAssay.

Measured composite z-score by item
TEST_TARGET: Neurogenic locus notch homolog protein 2 (Homo sapiens)
PROCEDURE_DETAILS: Notch2 binders on small-molecule microarrays, primary screen, biochemical, small-molecule microarray, 635 nm fluorescence, stem cell growth factors (AID 1073)
CONDITION_CONTEXT: Notch2 binding, higher = more signal

Worked set:
- COMPOUND: "C=CCC(OC(C)=O)[C@@H]1[C@@H](N(Cc2ccc(-c3ccccc3)cc2)C(=O)c2ccc(C)cc2)c2cc(OCCCO)ccc2N1C(=O)c1ccc2ccccc2c1 (stereo not given in full)"
  TEST_TARGET: "Neurogenic locus notch homolog protein 2 (Homo sapiens)"
  composite z-score: -0.168
- COMPOUND: "C=CCOC(=O)[C@H]1[C@@H]2C(=O)O[C@@H](c3ccccc3)[C@@H](c3ccccc3)N2[C@@H](c2ccc(OCCOC(=O)[C@@H]3C[C@@H]4C(=O)N[C@@H](CC(C)C)C(=O)N4[C@@H]3c3ccc(O)cc3)cc2)[C@]12C(=O)Nc1ccc(I)cc12"
  TEST_TARGET: "Neurogenic locus notch homolog protein 2 (Homo sapiens)"
  composite z-score: 0.672
- COMPOUND: "COCCOC(=O)N1C(=O)[C@@]2(c3cc(C#Cc4ccc(OC)cc4)ccc31)[C@H](C(=O)Nc1nc3ccccc3s1)[C@H]1C(=O)O[C@H](c3ccccc3)[C@H](c3ccccc3)N1[C@@H]2c1ccccc1OCCO"
  TEST_TARGET: "Neurogenic locus notch homolog protein 2 (Homo sapiens)"
  composite z-score: 1.02
- COMPOUND: "C=CC[C@]1(C(=O)NCc2ccccc2)COC(c2ccc(OCCCO)cc2)=N1"
  TEST_TARGET: "Neurogenic locus notch homolog protein 2 (Homo sapiens)"
  composite z-score: -0.813

# get_value(readout='composite z-score', item= C=CC[C@]1(C(=O)OC)N=C(c2ccc(OCCCO)cc2)O[C@H]1c1ccccc1N=[N+]=[N-] )
1.42
